Below, each entry is listed alongside its reported EC50.
Molecular target: T1, full-length Zaire GP (GPFL) (Ebola (Zaire) virus (EBOV), UniProt Q05320 33-632)
T1 construct: also called Zaire GPFL; GP(Z)FL
T1 sequence: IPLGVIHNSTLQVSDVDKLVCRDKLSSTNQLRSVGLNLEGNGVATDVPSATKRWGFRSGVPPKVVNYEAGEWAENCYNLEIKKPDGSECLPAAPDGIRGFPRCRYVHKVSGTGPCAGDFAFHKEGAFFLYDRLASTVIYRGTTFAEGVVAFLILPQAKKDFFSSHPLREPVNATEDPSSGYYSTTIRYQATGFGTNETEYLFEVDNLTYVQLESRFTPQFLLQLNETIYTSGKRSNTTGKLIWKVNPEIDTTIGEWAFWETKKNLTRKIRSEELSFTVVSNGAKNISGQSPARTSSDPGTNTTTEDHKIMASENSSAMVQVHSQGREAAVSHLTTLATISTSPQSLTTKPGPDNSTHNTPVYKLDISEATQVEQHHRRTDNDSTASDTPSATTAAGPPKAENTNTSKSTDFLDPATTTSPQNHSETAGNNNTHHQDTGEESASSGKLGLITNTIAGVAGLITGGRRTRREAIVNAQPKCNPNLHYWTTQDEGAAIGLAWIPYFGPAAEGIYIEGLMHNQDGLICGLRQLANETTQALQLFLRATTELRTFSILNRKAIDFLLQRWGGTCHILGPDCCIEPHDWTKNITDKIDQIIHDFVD
Test: ELISA on coated GP
Only the number, expressed in ng/mL, is required.

antibody 206L (antibody, V domains shown) VH: EVQLVESGGGVVQPGGSLRLSCAASGFTFDDYAMHWVRQAPGKGLEWVSGISWSGGNTYYADSVKGRFTVSRENAKNSLYLQMNRLRAEDTAFYNCARTSQGGAVVFSAPNYWGQGVLVTVSS VL: QSVLTQAPSVSGAPGQRVTISCTGSSSNIGGYYVQWYQQLPGRAPKLLIYENNKRPSGVSDRFSGSRSASSASLTITGLQSEDEADYYCQSYDSRLNGYIFGGGTRLTVL ... 1
antibody 191L (antibody, V domains shown) VH: EVQLVESGGGLVQPGGSLRLSCAASGFTFSSYGIHWVRQAPGKGLEWVAIISYDGNKKFHADSVKDRFTISRDNSKNMLYLQMNNLKLEDTAVYYCARAYDSGYFAGSVFYYWGQGVLVTVSS VL: EVVFTQPHSVSGSPGQTVTISCTRSSGSIDSEYVQWYQQRPGNAPTTVIYKDNQRPSGVPDRFSGSIDSSSNSASLAISGLKSEDEADYYCQSADGNYHPVFGEGTRLTVL ... 10

Entry antibody 231L (antibody, V domains shown) VH: EVQLVESGGGLVQPGGSLRLSCAASAFTFDDYAMHWVRQAPGKGLEWVSGITWSGLSTYYADSVKGRFTISRDNAKNSLYLQMNSLRVEDTALYYCAKSGNNSPFSGLDSWGQGAVVTVSS VL: QSVLTQPPSVSGAPGQRVTVSCTGSSSNIGAGSYVQWYQQLPGTAPKLLIYENNKRPSGVSDRFSGSKSGTSASLTITGLQSEDEADYYCQSYDSSLNAYIFGAGTRLTVL — recorded EC50 = 2
